FYI, the data here is from ChEMBL document CHEMBL1124555.

Hi there, I'd appreciate the recorded LD50 for every entry that follows.
# Procedure Summary: in vivo
# Applied Conditions: rat, ip
# Description: Toxicity evaluated in rats after intraperitoneal administration.

Data request: May I ask what LD50 has been recorded for CN(C)CCNc1c2c(nc3ccccc13)CCCC2O (centres undefined) ?
Data returned: > 80 mg/kg

Data request: May I ask what LD50 has been recorded for OC1CCCc2nc3ccccc3c(NCc3ccc(Cl)cc3)c21 (centres undefined) ?
Data returned: > 80 mg/kg

Data request: May I ask what LD50 has been recorded for OC1CCCc2nc3ccccc3c(NCCCC(c3ccccc3)c3ccccc3)c21 (centres undefined) ?
Data returned: > 80 mg/kg

Data request: May I ask what LD50 has been recorded for OC1CCCc2nc3ccccc3c(NCCc3ccccc3)c21 (centres undefined) ?
Data returned: > 80 mg/kg

Data request: May I ask what LD50 has been recorded for OC1CCCc2nc3ccccc3c(NCc3ccccc3Cl)c21 (centres undefined) ?
Data returned: > 80 mg/kg

Data request: May I ask what LD50 has been recorded for Nc1c2c(nc3cc(Cl)ccc13)CCCC2O (centres undefined) ?
Data returned: > 10 mg/kg

Data request: May I ask what LD50 has been recorded for OC1CCCc2nc3ccccc3c(NCCCC(c3ccc(F)cc3)c3ccc(F)cc3)c21 (centres undefined) ?
Data returned: > 80 mg/kg

Data request: May I ask what LD50 has been recorded for OC1CCCc2nc3ccccc3c(NCc3cccc(Cl)c3)c21 (centres undefined) ?
Data returned: > 80 mg/kg

Data request: May I ask what LD50 has been recorded for COc1ccccc1CNc1c2c(nc3ccccc13)CCCC2O (centres undefined) ?
Data returned: 80 mg/kg

Data request: May I ask what LD50 has been recorded for COc1ccc2c(N)c3c(nc2c1)CCCC3O (centres undefined) ?
Data returned: > 80 mg/kg

Data request: May I ask what LD50 has been recorded for OC1CCCc2nc3ccccc3c(NCc3ccc(C(F)(F)F)cc3)c21 (centres undefined) ?
Data returned: > 80 mg/kg

Data request: May I ask what LD50 has been recorded for COc1ccc(CNc2c3c(nc4ccccc24)CCCC3O)cc1 (centres undefined) ?
Data returned: > 80 mg/kg

Data request: May I ask what LD50 has been recorded for OC1CCCc2nc3cc(F)ccc3c(NCc3ccccc3C(F)(F)F)c21 (centres undefined) ?
Data returned: > 80 mg/kg

Data request: May I ask what LD50 has been recorded for OC1CCCc2nc3cc(Cl)ccc3c(NCc3ccccc3)c21 (centres undefined) ?
Data returned: > 80 mg/kg

Data request: May I ask what LD50 has been recorded for OC1CCCc2nc3ccccc3c(NCCCOc3ccccc3)c21 (centres undefined) ?
Data returned: > 80 mg/kg

Data request: May I ask what LD50 has been recorded for OC1CCCc2nc3cc(Cl)ccc3c(NCc3ccc(F)cc3)c21 (centres undefined) ?
Data returned: > 80 mg/kg

Data request: May I ask what LD50 has been recorded for Nc1c2c(nc3ccc(Cl)cc13)CCCC2O (centres undefined) ?
Data returned: 80 mg/kg

Data request: May I ask what LD50 has been recorded for OC1CCCc2nc3ccccc3c(NCc3ccccc3C(F)(F)F)c21 (centres undefined) ?
Data returned: 80 mg/kg

Data request: May I ask what LD50 has been recorded for O=C(O)/C=C/C(=O)O.OC1CCCc2nc3ccccc3c(NCc3cccs3)c21 (centres undefined) ?
Data returned: > 80 mg/kg
